# Lookup of reported pIC50 keyed by entry
- System under test: wild-type HIV-1 protease (Human immunodeficiency virus type 1 group M subtype B, UniProt P04585)
# pIC50: negative log10 of molar concentration; output just the value

Below, 2 compounds whose answers are already recorded.
COc1ccc(CN2C(=N)NC(c3ccccc3)(c3ccccc3)C2=O)cc1C(=O)N1Cc2cccc(F)c2C1 [Compound 372]; 8.16
N=C1N[C@](CCCC(F)(F)F)(c2ccc(F)cc2)C(=O)N1Cc1ccc(C(F)(F)F)c(C(=O)N2Cc3cnc(-c4cccc(F)c4)nc3C2)c1 [Compound 86]; 7.84

# pIC50 (compound: CC(C)CCC1(c2ccccc2)NC(=N)N(Cc2cc(C(=O)N3Cc4nccnc4C3)ccn2)C1=O (stereo not shown) [Compound 400] ) is 7.59

Value of measured pIC50 for the entry N=C1NC(c2ccccc2)(c2ccccc2)C(=O)N1Cc1cccc(C(=O)N2CCN(c3ccc(F)cc3)CC2)c1 [Compound 359] : 7.03

Origin of values: patent US20200069691A1
